- Assay details: Potentiation of doxorubicin-mediated cytotoxicity against human KBVIN cells assessed as reduction in doxorubicin IC50 at 10 uM after 72 hrs by SRB method relative to control
- Type: functional
Use Y when the recorded fold change (FC) is no lower than 50; use N when it is lower.

QUERY: Given COc1cc(C(=O)OCC(O[Si](C)(C)C(C)(C)C)c2cc(OC)c(OC)c(OC)c2)cc(OC)c1OC (stereo not given) , state whether its fold change (FC) is at least 50.
RESULT: Y

QUERY: Is fold change (FC) for COc1ccc(CCN(C)CCCC(C#N)(c2ccc(OC)c(OC)c2)C(C)C)cc1OC (stereo not given) [VERAPAMIL] at or above 50?
RESULT: N

QUERY: Is fold change (FC) for COc1cc(C(=O)OCC(OC(=O)c2cc(OC)c(OC)c(OC)c2)c2cc(OC)c(OC)c(OC)c2I)cc(OC)c1OC (stereo not given) at or above 50?
RESULT: Y

QUERY: Does the reported fold change (FC) for COc1ccc(/C=C/C(=O)OCC(OC(=O)/C=C/c2ccccc2)c2cc(OC)c(OC)c(OC)c2I)cc1OC (stereo not given) fall at or above the 50 mark?
RESULT: N

# credit: ChEMBL document CHEMBL2203070
